Taken from the nanobody polyreactivity screen of Harvey et al. (2022).

experiment: yeast display, Sf9 membrane polyspecificity reagent, FACS + sequencing; frameworks hold sequencing errors
EXPERIMENTAL_ENDPOINT: polyreactivity (PSR sort gate)

INSERT INTO assay_data (ordered_residues, result) VALUES
  ('QVQLVESGGGLVQAGGSLRLSCDASGSIISYYTMGWYRQAPWKERELVAAISLTGGSTYYADSVKGRFTISRDNAKNTVYLQMNSLKPEDTAVYYCIAVRYASPYGYWGQGTLVTVSS', 'high polyreactivity'),
  ('QDQLVESGGGLVQAGGSLRLSCAASGSIFQSYAMGWYRQAPGKERELVAANDRSGTSTYYADSVKGRFTISRDNAKNTVYLQLNSLKPEDTAVYYCAAVSSRGRFGYTVQIEYDYWGQGTQVTVSS', 'low polyreactivity'),
  ('QVQLVESGGGLVQAGCSLRLSCAASGSIFGWYAMGWYRPAPGKERELVAAITLIGGSTYYADSVKGRFTISRDNAKNTVYLQMNSLKPEDTAVYYCNAVWYWGDMDYWGQGTQVTVSS', 'low polyreactivity'),
  ('QVQLVESGGGLVQAGGSLRLSCAASGSTFVIYALGWYRQAPGKERELVAALSWSGGRTNYADSVKGRFTISRDNAKNTVYLQLNSLKPEDTAVYYCAAVTGVPYPHGRYKYGYWGQGTQVTVSS', 'high polyreactivity'),
  ('QVQLVESGGGLVQAGGSLRISCAASGLTFDRYAMGWYRQAPGKERELVAAISGSGSSTYYADSAKGRFTISRDNAKNTVYLQMNSLKPEDTAVYYCAADRDLGYDTRYNYWGQGTQVTVSS', 'low polyreactivity');
